Assay: Clearance in Sprague-Dawley rat at 6 mg/kg, IG measured HPLC analysis
Type: ADME, organism-based
Conditions: in vivo, po
recordedMetric: CL/F (mL/min)
Field format: number, assumed mL/min, no unit text.

// recorded CL/F for O=C(Nc1ccc(C(F)(F)F)cc1)Nc1cccc(CNc2nccnc2Cl)c1 : 0.811

====

Test: Selectivity index, ratio IC50 for antiproliferative activity against human HCV-29 cells over IC50 for antiproliferative activity against human T24 cells
Format: toxicity, cell-based
Details: HCV-29 cells versus T24 cells
List of SI values.
The reply should be a number, written without any unit.

compound	SI
O=C(Nc1cccc(CNc2nccnc2Cl)c1)Nc1ccccc1F	3.37
O=C(Nc1ccccc1)Nc1cccc(CNc2nccnc2Cl)c1	1.83
COc1ccccc1NC(=O)Nc1cccc(CNc2nccnc2Cl)c1	1.74
Nc1ccn([C@@H]2O[C@H](CO)[C@@H](O)C2(F)F)c(=O)n1 [GEMCITABINE]	2.12
CCc1ccccc1NC(=O)Nc1cccc(CNc2nccnc2Cl)c1	1.88

// recorded SI for O=C(Nc1cccc(CNc2nccnc2Cl)c1)Nc1ccccc1Cl : 4.21

// recorded SI for Cc1ccccc1NC(=O)Nc1cccc(CNc2nccnc2Cl)c1 : 2.47

// recorded SI for Cc1cccc(NC(=O)Nc2cccc(CNc3nccnc3Cl)c2)c1 : 2.96

// recorded SI for CNC(=O)c1cc(Oc2ccc(NC(=O)Nc3ccc(Cl)c(C(F)(F)F)c3)c(F)c2)ccn1 [REGORAFENIB] : 2.16

// recorded SI for O=C(Nc1cccc(CNc2nccnc2Cl)c1)Nc1ccc(Cl)c(Cl)c1 : 5.22

Hello, the source for this data is ChEMBL document CHEMBL5104108, in case you need it.
